PROTOCOL TEXT: In vivo pharmacokinetic studies in mice
TEST CONDITIONS: mouse, plasma, iv, 1 mg/kg, AUClast
RESULT TYPE: AUC(0-t)

The compound listed as CN(C)c1ccc(-c2cc(=O)c3ccc(O)c(O)c3o2)cc1 [compound 24, 4′-dimethylamino-7,8-dihydroxyflavone] has a reported AUC(0-t) of ~98.8 ng·h/mL

* * *

PROTOCOL TEXT: In vivo pharmacokinetic studies in mice
TEST CONDITIONS: mouse, plasma, iv, 1 mg/kg, T1/2, IV
RESULT TYPE: half-life

The molecule listed as CN(C)c1ccc(-c2cc(=O)c3ccc(O)c(O)c3o2)cc1 [compound 24, 4′-dimethylamino-7,8-dihydroxyflavone] has a reported half-life of ~9 min

Ref: paper PMC3491656
